# MEASUREMENT_DESCRIPTION: Mouse Pharmacokinetic Study (Example 1C)
# Assay type: in vivo
# SETTINGS: mouse; CD-1 mice, po, 30 mg/kg; plasma
# Method: Formulations of compounds set forth in Table 4 were administered intravenously or orally via gavage to CD-1 mice. […] Internal standard was added to each sample prior to protein precipitation with acetonitrile. The precipitates were filtered through a Phree phospholipid removal filter plate and the samples were analyzed by LC/MS/MS. […] The pharmacokinetics of each compound were analyzed by Phoenix WinNonlin software (Pharsight, St. Louis, Mo.) via non-compartmental analysis.
This section presents compounds with their documented Tmax values.
Note: unit min is implicit; provide only the numeric part.

>  <COMPOUND>
C[C@@H](O)c1cnn2c(NCCc3c[nH]c4ccccc34)cc(-c3cncc(F)c3)nc12 [I-222a]

>  <UNIT_DESCRIPTOR>
min

>  <DATA_VALUE>
12

$$$$

Write down Tmax measured for item Fc1cncc(-c2nc(N[C@@H]3CCc4[nH]c5ccccc5c4C3)c3ncccc3n2)c1 [I-126]
60

Write down Tmax measured for item Cc1cnn2c(N[C@H]3CCc4[nH]ccc4C3)nc(-c3cncc(F)c3)nc12 [I-259a]
30

Write down Tmax measured for item Fc1cncc(-c2nc(N[C@@H]3CCc4[nH]c5ccccc5c4C3)n3ncc(Br)c3n2)c1 [I-154]
120

Write down Tmax measured for item CC(C)c1cnn2c(N[C@@H]3CCc4[nH]c5ccccc5c4C3)cc(-c3cncc(F)c3)nc12 [I-75a]
120

Write down Tmax measured for item C[C@H](O)c1cnn2c(NCCc3c[nH]c4ccccc34)cc(-c3cncc(F)c3)nc12 [I-222b]
12

Write down Tmax measured for item Fc1cncc(-c2cc(NCCc3c[nH]c4ccccc34)n3nccc3n2)c1 [I-103]
12

Write down Tmax measured for item Cc1cnn2c(N[C@@H]3CCc4[nH]c5ccccc5c4C3)nc(-c3cncc(F)c3)nc12 [I-201]
60

Write down Tmax measured for item CC(C)c1cnn2c(N[C@@H]3CCc4[nH]c5ccccc5c4C3)nc(-c3cncc(F)c3)nc12 [I-40]
120

Write down Tmax measured for item CC(C)c1cnn2c(N[C@H]3CCc4[nH]ccc4C3)nc(-c3cncc(F)c3)nc12 [I-137a]
30

Write down Tmax measured for item C[C@@H](O)c1cnn2c(N[C@@H]3CCc4[nH]c5ccccc5c4C3)cc(-c3cncc(F)c3)nc12 [I-198a]
60

Write down Tmax measured for item Cc1cnn2c(N[C@H]3Cc4ccc(O)cc4C3)cc(-c3cncc(F)c3)nc12 [I-219]
12

Write down Tmax measured for item O=C(c1cnn2c(NCCc3c[nH]c4ccccc34)cc(-c3cncc(F)c3)nc12)N1CCOCC1 [I-65]
12

Write down Tmax measured for item C[C@H](O)c1cnn2c(N[C@@H]3CCc4[nH]c5ccccc5c4C3)nc(-c3cncc(F)c3)nc12 [I-118]
60

---

# MEASUREMENT_DESCRIPTION: Mouse Pharmacokinetic Study (Example 1C)
# Assay type: in vivo
# SETTINGS: mouse; CD-1 mice, po, 30 mg/kg; plasma
VALUE_TYPE: Tmax (min)
Note: unit min is implicit; provide only the numeric part.

The cases that follow already have their Tmax on record.
>  <MOLECULE>
Fc1cncc(-c2cc(OC3CCCC3)nc(NCCc3c[nH]c4ccccc34)n2)c1

>  <UNIT_DESCRIPTOR>
min

>  <Tmax>
30

$$$$
>  <MOLECULE>
CN(C)c1cnn2c(N[C@@H]3CCc4[nH]c5ccccc5c4C3)nc(-c3cncc(F)c3)nc12

>  <UNIT_DESCRIPTOR>
min

>  <Tmax>
120

$$$$
>  <MOLECULE>
Cc1cnn2c(NCCc3c[nH]c4ccccc34)cc(-c3cncc(F)c3)nc12

>  <UNIT_DESCRIPTOR>
min

>  <Tmax>
30

$$$$

Write down Tmax measured for item CN(C)c1cnn2c(NCCc3c[nH]c4ccccc34)cc(-c3cncc(F)c3)nc12
12

Write down Tmax measured for item CN(C)c1cnn2c(N[C@H]3Cc4ccc(O)cc4C3)cc(-c3cncc(F)c3)nc12 [I-204b]
12

Write down Tmax measured for item CC(C)c1cnn2c(N[C@@H]3CCc4[nH]ccc4C3)nc(-c3cncc(F)c3)nc12 [I-137b]
120

Write down Tmax measured for item N#Cc1cnn2c(N[C@@H]3CCc4[nH]c5ccccc5c4C3)nc(-c3cncc(F)c3)nc12
120

Write down Tmax measured for item CC(C)c1cnn2c(NCCc3c[nH]c4ccccc34)cc(-c3cncc(F)c3)nc12
12

---

# ASSAY_SYSTEM: AHR (UniProt P35869)
# Construct: IC50
# MEASUREMENT_DESCRIPTION: DRE-Luciferase Reporter Assay (Alternate Method) (Example 1B)
# Format: cell-based, murine or human
# SETTINGS: cell line and AHR activating ligand not specified
VALUE_TYPE: IC50

The cases that follow already have their IC50 on record.
>  <COMPOUND>
CC(C)Oc1cc(NCCc2c[nH]c3c(F)cc(F)cc23)nc(-c2cncc(F)c2)n1

>  <IC50>
500 to 1000 nM

$$$$
>  <COMPOUND>
CC(C)c1cnn2c(N[C@@H]3CCc4[nH]c5ccccc5c4C3)nc(-c3cccc(F)c3)nc12

>  <IC50>
> 1500 nM

$$$$
>  <COMPOUND>
CC(C)c1cnn2c(NCCc3c[nH]c4ccccc34)cc(-c3ccccc3)nc12

>  <IC50>
< 500 nM

$$$$
>  <COMPOUND>
Fc1cncc(-c2nc(NC3CCc4[nH]c5ccccc5c4C3)n3ncc(-c4ncc[nH]4)c3n2)c1 (centres unmarked)

>  <IC50>
1000 to 1500 nM

$$$$
>  <COMPOUND>
CC(C)Nc1cc(NCCc2c[nH]c3ccccc23)nc(-c2cncc(F)c2)n1

>  <IC50>
< 500 nM

$$$$

Tell me IC50 of Cc1cnn2c(NCCc3ccnc(O)c3)cc(-c3cncc(F)c3)nc12 when tested on AHR (UniProt P35869).
> 1500 nM

Tell me IC50 of Cc1cnn2c(NC[C@@H](O)c3c[nH]c4ccccc34)cc(-c3cncc(F)c3)nc12 [I-150b] when tested on AHR (UniProt P35869).
1000 to 1500 nM

Tell me IC50 of Cc1[nH]c2c(F)cccc2c1CCNc1cc(-c2cncc(F)c2)nc2c(C(F)(F)F)cnn12 when tested on AHR (UniProt P35869).
< 500 nM

---

# MEASUREMENT_DESCRIPTION: Mouse Pharmacokinetic Study (Example 1C)
# Assay type: in vivo
# SETTINGS: mouse; CD-1 mice, po, 30 mg/kg; plasma
VALUE_TYPE: half-life (min)
Note: unit min is implicit; provide only the numeric part.

The cases that follow already have their half-life on record.
>  <COMPOUND>
Cc1cnn2c(NCCc3c[nH]c4ccccc34)cc(-c3cncc(F)c3)nc12

>  <half-life (min)>
136

$$$$
>  <COMPOUND>
Fc1cncc(-c2nc(N[C@@H]3CCc4[nH]c5ccccc5c4C3)c3ncccc3n2)c1

>  <half-life (min)>
366

$$$$
>  <COMPOUND>
Cc1cnn2c(N[C@H]3CCc4[nH]ccc4C3)nc(-c3cncc(F)c3)nc12 [I-259a]

>  <half-life (min)>
72

$$$$
>  <COMPOUND>
Fc1cncc(-c2cc(NCCc3c[nH]c4ccccc34)n3nccc3n2)c1

>  <half-life (min)>
129

$$$$

Shift focus to the following entry.
Write down half-life measured for item CC(C)c1cnn2c(N[C@@H]3CCc4[nH]c5ccccc5c4C3)cc(-c3cncc(F)c3)nc12 [I-75a]
588

---

# MEASUREMENT_DESCRIPTION: Mouse Pharmacokinetic Study (Example 1C)
# Type: in vivo
# SETTINGS: mouse; CD-1 mice, iv, 3 mg/kg; plasma
VALUE_TYPE: log10 half-life (log10 of the value in h)
Transform log10 | Measure half-life | Unit h

Write down log10 half-life measured for item Fc1cncc(-c2cc(NCCc3c[nH]c4ccccc34)n3ncc(Br)c3n2)c1
0.12

Write down log10 half-life measured for item Cc1cnn2c(NCCc3c[nH]c4ccccc34)cc(-c3cncc(F)c3)nc12
0.03

Write down log10 half-life measured for item Cc1[nH]c2c(F)cc(F)cc2c1CCNc1cc(-c2cncc(F)c2)nc2c(C(C)C)cnn12
0.34

Write down log10 half-life measured for item Fc1cncc(-c2cc(NCCc3c[nH]c4ccccc34)n3nccc3n2)c1
-0.21

Write down log10 half-life measured for item Fc1cncc(-c2nc(N[C@@H]3CCc4[nH]c5ccccc5c4C3)n3ncc(Br)c3n2)c1
1.08

---

# ASSAY_SYSTEM: AHR (UniProt P35869)
# Construct: IC50
# Sequence (P35869 1-848): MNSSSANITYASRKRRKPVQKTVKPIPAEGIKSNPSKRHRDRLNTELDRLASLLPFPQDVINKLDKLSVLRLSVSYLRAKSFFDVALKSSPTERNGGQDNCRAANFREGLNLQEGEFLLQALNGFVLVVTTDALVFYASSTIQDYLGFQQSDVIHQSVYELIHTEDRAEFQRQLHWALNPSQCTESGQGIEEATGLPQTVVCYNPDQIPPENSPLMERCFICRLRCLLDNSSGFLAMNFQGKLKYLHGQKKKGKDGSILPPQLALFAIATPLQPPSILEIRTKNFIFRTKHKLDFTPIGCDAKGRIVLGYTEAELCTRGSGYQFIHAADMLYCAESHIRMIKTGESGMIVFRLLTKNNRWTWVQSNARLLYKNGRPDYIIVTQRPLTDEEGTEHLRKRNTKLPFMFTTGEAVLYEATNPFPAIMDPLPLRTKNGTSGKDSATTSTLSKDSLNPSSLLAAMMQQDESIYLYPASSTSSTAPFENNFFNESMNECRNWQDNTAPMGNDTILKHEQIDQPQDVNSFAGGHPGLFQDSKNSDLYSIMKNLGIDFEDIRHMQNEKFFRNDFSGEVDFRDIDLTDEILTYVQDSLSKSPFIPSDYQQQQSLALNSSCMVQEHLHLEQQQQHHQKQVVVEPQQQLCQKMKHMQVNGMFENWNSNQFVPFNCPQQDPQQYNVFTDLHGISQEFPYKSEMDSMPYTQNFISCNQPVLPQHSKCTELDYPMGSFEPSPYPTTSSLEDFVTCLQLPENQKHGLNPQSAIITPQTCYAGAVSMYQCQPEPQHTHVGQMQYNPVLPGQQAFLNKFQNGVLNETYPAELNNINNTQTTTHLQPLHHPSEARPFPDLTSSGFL
# MEASUREMENT_DESCRIPTION: DRE-Luciferase Reporter Assay (Alternate Method) (Example 1B)
# Assay type: cell-based, murine or human
# SETTINGS: cell line and AHR activating ligand not specified
This section presents molecules with their documented IC50 values.

The cases that follow already have their IC50 on record.
>  <MOLECULE>
Fc1cncc(-c2nc(NCCc3c[nH]c4ccccc34)n3ncc(Br)c3n2)c1

>  <IC50>
< 500 nM

$$$$
>  <MOLECULE>
CC(C)c1cnn2c(NC3CCc4[nH]c5ccccc5c4C3)cc(-c3cccc(F)c3)nc12 (centres unmarked)

>  <IC50>
> 1500 nM

$$$$

Tell me IC50 of CC(C)c1n[nH]c2c(NCCc3c[nH]c4ccccc34)nc(-c3cncc(F)c3)nc12 when tested on AHR (UniProt P35869).
< 500 nM

Tell me IC50 of OCc1cnn2c(NCCc3c[nH]c4c(O)cccc34)cc(-c3cncc(F)c3)nc12 when tested on AHR (UniProt P35869).
< 500 nM

Tell me IC50 of Fc1cncc(-c2nc(N[C@@H]3CCc4[nH]ccc4C3)c3ncccc3n2)c1 [I-252b] when tested on AHR (UniProt P35869).
< 500 nM

Tell me IC50 of Cc1cnn2c(N[C@@H]3CCc4[nH]ccc4C3)nc(-c3cncc(F)c3)nc12 [I-259b] when tested on AHR (UniProt P35869).
< 500 nM

Tell me IC50 of O=C(c1cnn2c(NCCc3c[nH]c4ccccc34)cc(-c3cncc(F)c3)nc12)N1CCOCC1 when tested on AHR (UniProt P35869).
< 500 nM

Tell me IC50 of Cc1cnn2c(NCCc3ccc(N)cc3)cc(-c3cncc(F)c3)nc12 when tested on AHR (UniProt P35869).
> 1500 nM

Tell me IC50 of Cc1[nH]c2c(F)cccc2c1CCNc1nc(-c2cncc(F)c2)nc2c1ncn2C(C)C when tested on AHR (UniProt P35869).
< 500 nM

Tell me IC50 of CON(C)C(=O)c1cnn2c(NCCc3c[nH]c4ccccc34)cc(-c3cncc(F)c3)nc12 when tested on AHR (UniProt P35869).
< 500 nM

Tell me IC50 of C[C@@H](O)c1cnn2c(NCCc3c[nH]c4ccccc34)cc(-c3cncc(F)c3)nc12 [I-222a] when tested on AHR (UniProt P35869).
< 500 nM

Tell me IC50 of CC(C)c1cnn2c(NCCc3c[nH]c4ccccc34)cc(-c3cccc4c3OCO4)nc12 when tested on AHR (UniProt P35869).
< 500 nM

Tell me IC50 of Fc1cncc(-c2nc(NC3CCc4[nH]c5ccccc5c4C3)n3ncc(-c4cnc[nH]4)c3n2)c1 (centres unmarked) when tested on AHR (UniProt P35869).
< 500 nM

Tell me IC50 of CC(C)n1cnc2c(NCCn3cnc4ccccc43)nc(-c3cncc(F)c3)nc21 when tested on AHR (UniProt P35869).
> 1500 nM

Tell me IC50 of CC(C)c1cnn2c(NC3CCc4[nH]c5ccccc5c4C3)nc(-c3ccc(C(F)(F)F)nc3)nc12 (centres unmarked) when tested on AHR (UniProt P35869).
> 1500 nM
